test system: MRP1 cells, doxorubicin viability shift, 10 uM compound; test: viability protection against doxorubicin, MRP-1 line – cell-based, doxorubicin EC50 shift, dose response (AID 844)
Please use Condition met whenever fold increase in Dox EC50 is not below 0.9, and Condition not met whenever it is.

Solved cases (6 shown):
O=C(CC1SC(=O)N(c2ccccc2)C1=O)Nc1ccccc1 (stereo not given)    Condition met
CCCCCC(=O)Nc1ccc(S(=O)(=O)Nc2ccc(Cl)nn2)cc1    Condition met
O=C(NNC(=O)c1cccnc1)Nc1cccc2ccccc12    Condition not met
CCOC(=O)c1cc(-c2ccccc2)sc1NC(=O)C(C)Sc1nnc(C)s1 (stereo not given)    Condition not met
CC1=NN(C(=O)c2ccc(Cn3nc(C)c(Br)c3C)cc2)C(O)(C(F)(F)F)C1 (stereo not given)    Condition met
CC(/C=N/NC(=O)c1nn(C)c(C)c1Br)=C\c1ccccc1    Condition met

Query string: Textbook exercise: given the entry COc1ccc(Cl)cc1C(=O)Nc1ccc2c(c1)OCO2 , state whether its fold increase in Dox EC50 is greater than or equal to 0.9.
Result string: Condition not met

Query string: Record COc1cccc(C2CC(c3ccc(Cl)cc3Cl)n3nc(N)nc3N2)c1 (stereo not given) ; criterion: fold increase in Dox EC50 no lower than 0.9. Met?
Result string: Condition met

Query string: Given CNC(=S)Nc1ccc(C)cc1 , state whether its fold increase in Dox EC50 is at least 0.9.
Result string: Condition not met

Query string: Identify whether the reported fold increase in Dox EC50 of the following compound is 0.9 or greater: Cc1cccc2cc(CN(Cc3cccs3)S(=O)(=O)c3ccc4c(c3)OCCO4)c(=O)[nH]c12
Result string: Condition met

Query string: Hi, just wondering whether Cc1nnc(NC(=O)c2c(F)cccc2F)s1 shows fold increase in Dox EC50 of 0.9 or higher.
Result string: Condition met

Query string: Decide: is the reported value of fold increase in Dox EC50 for O=C(CN1C(=O)/C(=C/c2ccccc2)SC1=S)Nc1ncc(Cc2ccccc2)s1 equal to or greater than 0.9?
Result string: Condition met

Query string: Entry CCc1nn2c(N)c(/C=C3\C=Nc4ccccc43)c(=O)nc2s1 : is its fold increase in Dox EC50 no less than 0.9?
Result string: Condition met

Query string: Could you tell me if the measured fold increase in Dox EC50 of O=C(c1ccc(COc2ccc(Br)cc2)o1)N1N=C(C(F)F)CC1(O)C(F)F (stereo not given) reaches 0.9 or more?
Result string: Condition met

---

tested on: MRP1 cells, doxorubicin viability shift, 10 uM compound; assay: viability protection against doxorubicin, MRP-1 line – cell-based, doxorubicin EC50 shift, dose response (AID 844)
The source made the active and inactive calls. How the calls were made is not given here.
Your reply should match one of these outcome classes. active, inactive

Record excerpt, results attached:
O=C(NC(=S)Nc1ccccc1N1CCOCC1)c1ccc(-c2cc(Cl)ccc2Cl)o1    inactive
COc1ccc(Nc2nnc(Cc3ccc(Cl)cc3)c(=O)[nH]2)c(OC)c1    inactive
N#CCSc1n[nH]c2nc3c(c(=O)n12)C1(CCCC1)Cc1ccccc1-3    inactive
O=C(COc1ccc(F)cc1)Nc1ccc(-n2cnnn2)cc1    inactive
CC(/C=C1\SC(=S)N(NC(=O)c2ccc(O)cc2)C1=O)=C\c1ccccc1    inactive

Query string: Outcome? Cc1nnc(NC(=O)C(C)Oc2ccc3c(C)cc(=O)oc3c2)s1 (centres undefined)
Result string: inactive

Query string: Please indicate how the test categorized N#Cc1nc(COc2ccccc2)oc1N1CCCCCC1 .
Result string: inactive

Query string: Field: outcome | Entry: O=C(CSCc1ccc(Cl)cc1)N1CCN(Cc2ccc3c(c2)OCO3)CC1
Result string: inactive

Query string: GET /call?item= Cc1cccc2c3nc4ccccc4nc3n(CCCN3C(=O)c4ccccc4C3=O)c12 returns the recorded outcome of this test.
Result string: inactive

---

system: MRP1 cells, doxorubicin viability shift, 10 uM compound; assay: viability protection against doxorubicin, MRP-1 line – cell-based, doxorubicin EC50 shift, dose response (AID 844)
The source made the active and inactive calls. How the calls were made is not given here.
# output must be one of True for active, False for inactive

Query string: What did this assay record as the result for CNC(=S)Nc1ccc(C23CC4CC(CC(C4)C2)C3)cc1 ?
Result string: False

---

tested on: MRP1 cells, doxorubicin viability shift, 10 uM compound; assay: viability protection against doxorubicin, MRP-1 line – cell-based, doxorubicin EC50 shift, dose response (AID 844)
Threshold-based label: fold increase in Dox EC50 under 0.9 gives rule met, fold increase in Dox EC50 not under 0.9 gives rule not met.

N#CCn1nnc(-c2ccc3c(c2)OCO3)n1    rule not met
Cc1cc(/C=C2\SC(=S)NC2=O)c(C)n1C    rule not met
O=C(NCC1(c2ccccc2)CCOCC1)c1ccc(Br)o1    rule not met
CCCN1C(=O)/C(=N\OCC(=O)Nc2ccc(C(C)C)cc2)c2ccccc21    rule met
O=C(CSc1nnc(-c2ccccc2)n1-c1ccc(Cl)cc1)N/N=C/c1ccco1    rule met
Cc1cccc2cc(CN(Cc3ccco3)S(=O)(=O)c3ccc4c(c3)OCCO4)c(=O)[nH]c12    rule not met
CCOc1ccc(-c2nc(C#N)c(N3CCCCCC3)o2)cc1    rule met
Cc1ccc(CC2SC(=Nc3ccccc3)N(c3ccccc3)C2=O)cc1 (stereo not drawn)    rule not met
COc1ccc(C2CC(c3ccc(Cl)cc3)n3nc(N)nc3N2)cc1 (stereo not drawn)    rule met
Cc1noc(/C=C/N(C)C)c1S(=O)(=O)N1CCCC(C(=O)N2CCCCC2)C1 (stereo not drawn)    rule met

Query string: Strictly below 0.9: is that where fold increase in Dox EC50 of O=C(O)CCN1C(=O)CC(N2C(=O)/C(=C/c3ccc(Cl)cc3)SC2=S)C1=O (stereo not drawn) sits?
Result string: rule not met

Query string: Please check: fold increase in Dox EC50 for COc1ccc(/C=C/C(=O)Nc2c(C)nn(C)c2C)cc1COc1ccc(Br)cc1 , strictly under 0.9 or not?
Result string: rule met

Query string: Is 0.9 strictly greater than the compound's reported fold increase in Dox EC50? compound: Cc1ccc(Nc2nnc(-c3ccc(N4CCOCC4)c([N+](=O)[O-])c3)c3ccccc23)cc1
Result string: rule met

Query string: # strict comparison: is reported fold increase in Dox EC50 < 0.9? input = O=C(N/N=C/c1ccc(-c2ccc([N+](=O)[O-])cc2)o1)C(O)c1ccccc1 (stereo not drawn)
Result string: rule met

Query string: Quick check: does CCN(CC(=O)NC(C)C)C(=O)c1ccc(Cl)cc1 have fold increase in Dox EC50 under 0.9?
Result string: rule met

Query string: # strict comparison: is reported fold increase in Dox EC50 < 0.9? input = O=C(COc1ccc(Cl)cc1)N1CCN(Cc2ccccc2)CC1
Result string: rule not met

Query string: Item CN=C1S/C(=C\c2cc(C)n(-c3ccccc3F)c2C)C(=O)N1C : fold increase in Dox EC50 beneath 0.9, strictly?
Result string: rule met

---

system: MRP1 cells, doxorubicin viability shift, 10 uM compound; test: viability protection against doxorubicin, MRP-1 line – cell-based, doxorubicin EC50 shift, dose response (AID 844)
measured-property: fold increase in Dox EC50
# print the numeric value only

Some solved entries appear below for comparison.
COc1ccc(N2CCN(c3nc(Cl)nc(N4CCOCC4)n3)CC2)cc1    0.69
CCOC(=O)c1c(-c2ccc(C)o2)csc1NC(=O)CSc1ncn[nH]1    0.51
Cc1ccc(/C=C2\SC(=S)N(c3c(C)n(C)n(-c4ccccc4)c3=O)C2=O)cc1    0.97

Item: Cc1cc(NC(=O)CSc2nc(-c3ccccc3)c(C#N)c(=O)[nH]2)no1 | fold increase in Dox EC50: 1.51

Looking up O=C(CC1SC(=O)N(Cc2ccccc2)C1=O)Nc1nccs1 (stereo not given) , I see its fold increase in Dox EC50 listed as 1.82

---

system: MRP1 cells, doxorubicin viability shift, 10 uM compound; assay: viability protection against doxorubicin, MRP-1 line – cell-based, doxorubicin EC50 shift, dose response (AID 844)
fold increase in Dox EC50 values for the compounds below.
Reply: number alone, nothing else.

COc1ccc(NC(=O)CC2C(=O)N(c3ccc(F)cc3)C(=S)N2NC(=O)c2ccccc2)cc1 (configuration not stated)    0.79
Brc1ccc(CSc2ncn[nH]2)cc1    1
COc1ccc(N2CCN(c3oc(COc4ccc(Cl)cc4)nc3C#N)CC2)cc1    1.64

Reported fold increase in Dox EC50 for O=C(Nc1ccc(O)cc1)C1CCCO1 (configuration not stated) was 0.91

In plain terms, CC(C)CNC(=O)c1cccc(NC(=O)Cc2ccc(Br)cc2)c1 has a documented fold increase in Dox EC50 of 0.92

Entry COc1ccc(OC)c(NC(=O)CSc2nnc(CNC(=O)COc3ccc(Cl)cc3)o2)c1 , fold increase in Dox EC50 reported as 1.11

O=C(CSc1ccccc1)Nc1nnc(COc2ccc(Cl)cc2)s1 yielded fold increase in Dox EC50 of 0.43

Note to self: fold increase in Dox EC50 recorded for Cc1ccc(S(=O)(=O)Nc2ccc3ncccc3c2)cc1 was 1.36
